System: ML-2
ASSAY_OVERVIEW: cell viability (% survival relative to DMSO control, bortezomib = 0%); higher = less cytotoxic
CONDITION_SET: 10000 nM; 72 h
Label rule met when cell viability is strictly below 90%; otherwise label rule not met.

The following molecules have reported results that may help.
COc1cc2c(NC3CCN(C)CC3)nc(N3CCCN(C)CC3)nc2cc1OCCCN(C)C [UNC0224] :: rule not met
CC(Cc1ccc(O)c(O)c1)C(C)Cc1ccc(O)c(O)c1 (stereo unspecified) [Masoprocol] :: rule met
Oc1cc(Cl)ccc1Oc1ccc(Cl)cc1Cl [Triclosan] :: rule not met
CC12CCC(O)CC1CCC1C2CCC2(C)C(C3=CC(=O)OC3)CCC12O (stereo unspecified) [Digitoxigenin] :: rule met
O=C(O)C(Cl)Cl [Dichloroacetate] :: rule not met

Incoming: Just wondering, is cell viability of [N-]=[N+]=CC(=O)CC[C@H](N)C(=O)O [6-Diazo-5-oxo-L-norleucine] below 90%?
Outgoing: rule not met

Incoming: Field: below-cutoff. Rule: recorded cell viability strictly less than 90%. Subject: O=C(O)c1cc2sccc2[nH]1 [4H-thieno[3,2-b]pyrrole-5-carboxylic acid]
Outgoing: rule not met

Incoming: Please determine if C[C@]12CC[C@H](O)CC1=CC[C@@H]1[C@@H]2CC[C@]2(C)C(c3cccnc3)=CC[C@@H]12 [Abiraterone] is below 90% in terms of cell viability.
Outgoing: rule not met

Incoming: API: query returns whether the molecule falls strictly under 90% in cell viability. Query: N[C@](CCCCB(O)O)(CCN1CCCCC1)C(=O)O [Arginase inhibitor 1]
Outgoing: rule not met
